- Tested on: P. falciparum stage V gametocytes
- Design: BacTiter-Glo ATP luminescence viability of purified stage V gametocytes in 384-well plates, per cent inhibition versus DMSO
- Protocol conditions: 48 h, 5 µM; inhibitor
Screen size: about 13,000 compounds; about 3,200 (25%) showed an effect of 50% or more. The list shows a part of the results.
Property: % Inhibition; scope: individual compounds

# Compound, % Inhibition (%)
rows = [
    ("Cc1cc2nc(-c3ccc(C(=O)NC4CCN(Cc5ccccc5)CC4)s3)[nH]c2cc1C [TCMDC-140513]", 1.433),
    ("COc1cc(Nc2ncc3c(C)nc(-c4cc5ccccc5[nH]4)n3n2)cc(OC)c1OC [TCMDC-138905]", 5.084),
    ("Cc1ccc(C)c(Sc2ccc(NC(=O)CN3CCN(C(=O)c4ccco4)CC3)cc2)c1 [TCMDC-124860]", -17.66),
    ("COc1cc2c(=O)c(Cc3ccc(Cl)cc3)c(C)[nH]c2cc1F [TCMDC-137280]", 22.18),
    ("CN1CCc2ccc(NC(=O)Nc3cccc([N+](=O)[O-])c3)cc2C1 [TCMDC-139120]", -5.165),
    ("CN(c1ccc(F)cc1)S(=O)(=O)c1ccc(Cl)c(C(=O)Nc2cccc(C#N)c2)c1 [TCMDC-123717]", 11.84),
    ("C=C1N(C)c2cc([N+](=O)[O-])c(N)cc2C1(C)C [TCMDC-125319]", -63.8),
    ("CN1CCN(c2ccc(-c3cc(-c4ccncc4)c(-c4ccc(Cl)c(O)c4)o3)cc2)CC1 [TCMDC-141308]", 9.946),
    ("CCCCCCCc1c(C)[nH]c2cc(OC)ccc2c1=O [TCMDC-137173]", 75.71),
    ("CCCCCCc1c(C)[nH]c2cc(OC)ccc2c1=O [TCMDC-138010]", 73.98),
    ("CC(=O)Nc1nc(C(=O)Nc2cccc(-c3ccc(-c4nc5cccc(C)c5[nH]4)s3)c2)cs1 [TCMDC-137132]", -23.79),
    ("Cc1nc(-c2cccc(C(F)(F)F)c2)n2nc(Nc3ccc(OCCN4CCCC4)cc3)ncc12 [TCMDC-138911]", 108.6),
    ("CCCCCCN(C(=O)OCc1ccccc1)C1CCN(C(=O)OC(C)(C)C)CC1C(=O)OCC (centres unmarked) [TCMDC-140339]", 26.28),
    ("c1ccc(Oc2ccc(Nc3ccnc(Nc4ccc(OCCN5CCCCC5)cc4)n3)cc2)cc1 [TCMDC-138583]", -73.3),
    ("CCCC(C)Nc1nc(C)cc(N[C@@H](Cc2ccccc2)C(=O)NCCc2ccccc2)n1 (some centres unmarked) [TCMDC-134766]", 6.892),
    ("Cc1ccc(C)c(Cn2ccc3nc(Cl)nc(Cl)c32)c1 [TCMDC-137818]", 13.19),
    ("CCOC(=O)c1c(CCc2ccc(C(F)(F)F)cc2)nc2c(c1-c1ccc(C(=O)N[C@@H](C)c3ccncc3)cc1)C(=O)N1CCC[C@@H]21 [TCMDC-138612]", 6.02),
]

###

Property: % Inhibition; scope: individual compounds
- Tested on: P. falciparum stage V gametocytes
- Set-up: BacTiter-Glo ATP luminescence viability of purified stage V gametocytes in 384-well plates, per cent inhibition versus DMSO
- Protocol conditions: 48 h, 5 µM; inhibitor
The whole screen tested about 13,000 compounds, of which about 3,200 (25%) showed an effect of 50% or more. The list shows a part of the results.
Value kind: % Inhibition (%)

# Compound, Uom, Measured
records = [
    ("O=C(CCc1nc2c(cnn2-c2ccccc2)c(=O)[nH]1)NC1CCSc2ccccc21 (centres unmarked)", "%", -14.45),
    ("O=C(/C=C/c1ccc(Cl)c(Cl)c1)NCCCCCN1CCC(NC(=S)Nc2ccc(F)cc2F)CC1", "%", 33.5),
    ("Cc1cccc2[nH]c(-c3cccc(-c4cccc(NC(=O)CNc5ccc(C(N)=O)cc5)c4)c3)nc12", "%", -3.752),
    ("Cc1cccc2[nH]c(-c3cccc(-c4ccc(NC(=O)C(C)CN5CCOCC5)cc4)c3)nc12 (centres unmarked)", "%", 85.59),
    ("CC(=O)N[C@H](C(=O)Nc1ccc(-c2cccc(-c3nc4c(C)cccc4[nH]3)c2)cc1)C(C)C", "%", -50.38),
    ("Cc1nc(N)nc(N)c1-c1ccc(Br)cc1", "%", -63.84),
    ("COc1cccc(CN2CCCC(OC(c3ccccc3)c3ccccc3)C2)c1O (centres unmarked)", "%", -25.83),
    ("Cc1cccc2[nH]c(-c3cccc(-c4ccc(NC(=O)C(C)CN5CCN(C)CC5)cc4)c3)nc12 (centres unmarked)", "%", 58.09),
    ("Cn1cncc1C(=O)Nc1ccc(-c2ccc(-c3nc4ccc(C(F)(F)F)cc4[nH]3)cc2)cc1", "%", -63.66),
    ("COc1cc2nc(C)nc(Nc3cccc(Br)c3)c2cc1OC", "%", -0.682),
    ("CC1(C)N=C(N)NC(Nc2ccc(F)c(F)c2)=N1", "%", -23.61),
    ("O=C(CSc1nc(-c2ccccc2Cl)ns1)Nc1cccc(Cl)c1", "%", 67.64),
    ("Cc1cccc2[nH]c(-c3cccc(-c4cccc(NC(=O)C(C)CN5CCN(C)CC5)c4)c3)nc12 (centres unmarked)", "%", 88.37),
    ("O=C(C=Cc1ccc(Cl)c(Cl)c1)NCCCCCN1CCC(CCNS(=O)(=O)c2ccc(F)cc2)CC1", "%", 78.1),
    ("CCC(C)NC(=O)Nc1ccc(-c2cccc(-c3nc4c(C)cccc4[nH]3)c2)cc1 (centres unmarked)", "%", -3.731),
    ("Cc1cccc2[nH]c(-c3cccc(-c4ccc(NC(=O)CN5CCOCC5)cc4)c3)nc12", "%", -20.19),
    ("O=C(C=Cc1ccc(Cl)c(Cl)c1)NCCCCCN1CCC(CCCNS(=O)(=O)c2ccc(F)cc2)CC1", "%", 110.7),
    ("CC(=O)NCCNc1nccc(N2CCc3ncnc(Nc4ccc(OCc5cccc(F)c5)c(Cl)c4)c3C2)n1", "%", 4.041),
    ("O=C(Nc1cccc(CN2CCCN(Cc3ccc4c(c3)OCO4)CC2)c1)c1ccc(Cl)c(Cl)c1", "%", -97.11),
    ("O=C(CSc1nc(-c2ccccc2Cl)ns1)Nc1ccc2c(c1)OCO2", "%", 53.36),
    ("COc1ccccc1Cc1nc2ccccc2nc1SCC(=O)Nc1cccc(C(F)(F)F)c1", "%", 0.3581),
    ("CCC(C)NC(=O)Nc1cccc(-c2cccc(-c3nc4c(C)cccc4[nH]3)c2)c1 (centres unmarked)", "%", 36.1),
    ("C[C@@H](N)C#Cc1cc2c(Nc3ccc(OCc4cccc(F)c4)c(Cl)c3)ncnc2s1", "%", 18.43),
    ("Cc1cccc2[nH]c(-c3cccc(-c4ccc(NC(=O)C(C)C(=O)NC(C)C)cc4)c3)nc12 (centres unmarked)", "%", -14.66),
    ("COc1ccccc1-c1ccc2nnc(SCC(=O)Nc3ccc4c(c3)OCCO4)n2n1", "%", 10.92),
    ("COc1cccc(NC(=O)CSc2nc(-c3ccccc3Cl)ns2)c1", "%", 62.62),
    ("O=C(Nc1cccc(Cl)c1)c1cc2ccccc2cc1O", "%", 9.946),
    ("CN(C)Cc1ccc(-c2cc3ncnc(Nc4ccc(OCc5cccc(F)c5)c(Cl)c4)c3s2)[nH]1", "%", 40.2),
    ("CCN(CC)CCCNc1nccc(N2CCc3ncnc(Nc4ccc(OCc5cccc(F)c5)c(Cl)c4)c3C2)n1", "%", 102.3),
    ("CN(C)CCNc1nccc(N2CCc3ncnc(Nc4ccc(OCc5cccc(F)c5)c(Cl)c4)c3C2)n1", "%", 71.57),
    ("CNCCNc1nccc(N2CCc3ncnc(Nc4ccc(OCc5cccc(F)c5)c(Cl)c4)c3C2)n1", "%", 99.42),
    ("O=C(/C=C/c1ccc(Cl)c(Cl)c1)NCCCCCN1CCC(NC(=O)Nc2ccc(F)cc2F)CC1", "%", 11.66),
]
